B1: CPEB3 Ribozyme (parent)
chain: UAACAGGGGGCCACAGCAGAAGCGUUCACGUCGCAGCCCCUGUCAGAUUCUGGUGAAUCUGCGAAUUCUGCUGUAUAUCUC

Variants of: B1
methodNotes: self-cleavage, relative activity (ratio to wild type); higher = more cleavage; in vitro, sequencing
self-cleavage reference

>  <querySequence>
UAACAGGGGCCCACAGCAGAAGCGUUCACGUCGCAGCCCCUGUCAGAUUCUGGUGAAUCUGCGAAUUCUGCUGUAUACCUC [G10C U78C]

>  <self-cleavage>
0.17

$$$$
>  <querySequence>
UAACAGGGGGCCACAGCAGAAGCGUUCACGUCGCAGCCCCUGUCUGAUUCGGGUGAAUCUGCGAAUUCUGCUGUAUAUCUC [A45U U51G]

>  <self-cleavage>
0.46

$$$$
>  <querySequence>
UAACUGGGGGCCACAGCAGAAGCGUUCACGUCGCAGCCCCUGUCAGAUUCUGGUGAAUCUGCGAAUCCUGCUGUAUAUCUC [A5U U67C]

>  <self-cleavage>
0.29

$$$$
>  <querySequence>
UAACAGGGGGCUACAGCAGAAGCGUCCACGUCGCAGCCCCUGUCAGAUUCUGGUGAAUCUGCGAAUUCUGCUGUAUAUCUC [C12U U26C]

>  <self-cleavage>
0.84

$$$$
>  <querySequence>
UAACGGGGGGCCACAGCAGAAGCGUUCACGUCGCAGCCCCUGUCAGAUUCUGGUGAAUCUGCGAUUUCUGCUGUAUAUCUC [A5G A65U]

>  <self-cleavage>
0.19

$$$$
>  <querySequence>
UAACAGGCGGCCACAGCAGAAGCGUUCACGUCGCAGCCCCUGUCAGAUUCUGGUGAAUCUGCGAAUCCUGCUGUAUAUCUC [G8C U67C]

>  <self-cleavage>
0.15

$$$$
>  <querySequence>
UAACAGGGGGCCCCAGCAGAAGCGUUCACGUCGCAGCCCCUGUUAGAUUCUGGUGAAUCUGCGAAUUCUGCUGUAUAUCUC [A13C C44U]

>  <self-cleavage>
0.59

$$$$
>  <querySequence>
UAACAGGGGGCCACAGCAGAAGCGUUCACGUCGCAGCCCCUGUCAGAUUCUGGUGAAUCUGCGACUCCUGCUGUAUAUCUC [A65C U67C]

>  <self-cleavage>
0.23

$$$$
>  <querySequence>
UAACAAGGGGCCACAGCAGAAGCGUUCACGUCGCAGCCCCUGUCAGAUUCUGGUGAAUCUGCGAAUUCUGCUGUAUAUUUC [G6A C79U]

>  <self-cleavage>
0.55

$$$$
>  <querySequence>
UAACAGGGGGCCACAGCAGAAGCGUUCACGUCGCAACCCCUGUCAGAUUCUGGUGAGUCUGCGAAUUCUGCUGUAUAUCUC [G36A A57G]

>  <self-cleavage>
0.17

$$$$
>  <querySequence>
UAACAGGGGGACACAGCAGAAGCGUUCACGUCGCAGCCCCUGUCAGAUUCUGGUGAAUCUGCGAAUCCUGCUGUAUAUCUC [C11A U67C]

>  <self-cleavage>
0.09

$$$$
>  <querySequence>
UAGCAGGGGGCCACAGCAGAAGCGUUCACGUCGCAGCCCCUGUCAGAUUCUGGUGAAUCUGCGAAUUUUGCUGUAUAUCUC [A3G C68U]

>  <self-cleavage>
0.79

$$$$
>  <querySequence>
UAACUGGGGGGCACAGCAGAAGCGUUCACGUCGCAGCCCCUGUCAGAUUCUGGUGAAUCUGCGAAUUCUGCUGUAUAUCUC [A5U C11G]

>  <self-cleavage>
0.5

$$$$
>  <querySequence>
UAACAGGGGGCCACAGCAGAAGCGUUCACGUCGCAGCCCCUGUCAGAUCCUGGUGAAUCUGCGAAUUCGGCUGUAUAUCUC [U49C U69G]

>  <self-cleavage>
0.25

$$$$
>  <querySequence>
UAACAGGGGGCCACGGCAGAAGCGUUCACGUCGCAGCCCCUGUCAGAUUCUGGUGAAUCUGCGAAUUCUGCUAUAUAUCUC [A15G G73A]

>  <self-cleavage>
1.19

$$$$
>  <querySequence>
UAACAGGGGGCCACAGCAGAAGCGUUCACGUCGCAGCCCCUGUCAGAUUCUGGUGAAUCUGCGAAUUCUGCUGUAGUUCUC [U76G A77U]

>  <self-cleavage>
0.75

$$$$
>  <querySequence>
UAACAGGGGCACACAGCAGAAGCGUUCACGUCGCAGCCCCUGUCAGAUUCUGGUGAAUCUGCGAAUUCUGCUGUAUAUCUC [G10C C11A]

>  <self-cleavage>
0.33

$$$$
>  <querySequence>
UAACAGGGGGCCACAGCGGAAGCGUUCACGUCGCAGCCCCUGUCAGAUUCUGGUGAAUCUGCGAAUUCUGCUGUAUAUCCC [A18G U80C]

>  <self-cleavage>
0.86

$$$$
>  <querySequence>
UAACAGGGGGCCACAGCAGAAGCGUUCACGUUGCAGCCCCUGUCAGAUUCUGGCGAAUCUGCGAAUUCUGCUGUAUAUCUC [C32U U54C]

>  <self-cleavage>
0.33

$$$$
>  <querySequence>
UAACAGGGGGCCACAGCAGAAGCGUUCACGUCGCAGCCCCUGUCAGAUCCUGGUGAAUCUGCGACUUCUGCUGUAUAUCUC [U49C A65C]

>  <self-cleavage>
0.14

$$$$
>  <querySequence>
UAACAGGGGGCCACAGCAGAAGCGUUCACGUCCCAGCCCCUGUCAGAUUCUGGUGAGUCUGCGAAUUCUGCUGUAUAUCUC [G33C A57G]

>  <self-cleavage>
0.13

$$$$
>  <querySequence>
UAACAGGGGGCCACAGCAGAAGCGUUCACGUCGCAGCCCCUGUCAGAUUCUGGUGAAUCUGCGAAUUCUGCUGAAUAUCCC [U74A U80C]

>  <self-cleavage>
1.24

$$$$
>  <querySequence>
CAACAGGGGGCCACAGCAGAAGCGUUCACGUCGCCGCCCCUGUCAGAUUCUGGUGAAUCUGCGAAUUCUGCUGUAUAUCUC [U1C A35C]

>  <self-cleavage>
0.71

$$$$
>  <querySequence>
UAACAGGGGGCCACAGCAGGAGCGUUCACGUCGCAGCCCCUGUCAGAUUCUGGUGAAUCUGCGAAUUCUGCUGCAUAUCUC [A20G U74C]

>  <self-cleavage>
1.17

$$$$
>  <querySequence>
UAACAGGGGGCCACAGCUGAAGCGUUCACGUCGCAGCCCCUGUCAGAUUCUGGUUAAUCUGCGAAUUCUGCUGUAUAUCUC [A18U G55U]

>  <self-cleavage>
0.41

$$$$
>  <querySequence>
UAACAGGGGGCCACAGCAGAAGCGUUCACGUCGCAGCCCCUGUCAGAUUCUGGUGAAUCUGUGAAUUCUGCUGUAUAUCAC [C62U U80A]

>  <self-cleavage>
0.3

$$$$
>  <querySequence>
UAACAGGGGGCCACAGCAGAAGCGCUCACGUCGCAGCCGCUGUCAGAUUCUGGUGAAUCUGCGAAUUCUGCUGUAUAUCUC [U25C C39G]

>  <self-cleavage>
0.15

$$$$
>  <querySequence>
UAACAGGGGGCCCCAGCAGAAGCGUUCACGUCGCAGCCCCUGUCAGAUUCUGGUGAAUCUGCGAACUCUGCUGUAUAUCUC [A13C U66C]

>  <self-cleavage>
0.33

$$$$
>  <querySequence>
UAACAGGGGGCUACAGCAGAAGCGUUCACGUCGCAGCCCCUGUCAGAUUCUGGUGAAUCUGCGAAUUCUGCUGUAUCUCUC [C12U A77C]

>  <self-cleavage>
1.03

$$$$
>  <querySequence>
UAACAGGGGGCCACAGCAGAAGCGUUCACGACGCAGCCCCUGUCAGAUUCUGGUGAAUAUGCGAAUUCUGCUGUAUAUCUC [U31A C59A]

>  <self-cleavage>
0.17

$$$$
>  <querySequence>
UAACAGGGGGCCACAGCAGAUGCGUUCACGUCGCAGCCUCUGUCAGAUUCUGGUGAAUCUGCGAAUUCUGCUGUAUAUCUC [A21U C39U]

>  <self-cleavage>
0.2

$$$$
>  <querySequence>
UAACAGGGGGCCACAGCAGAAGCGUUCACGUCGCAGCCCCUGUCAGAUUCUGGUGAAUCUGCGUAGUCUGCUGUAUAUCUC [A64U U66G]

>  <self-cleavage>
0.13

$$$$
>  <querySequence>
UAACAGGGGGCCACAGCAGAAGCGUUCACGUCGCAGCCCCUGUCAGAUUCUGGUGAAUCUGCGAAUUCUGCUGUACAUCUA [U76C C81A]

>  <self-cleavage>
1.24

$$$$
>  <querySequence>
UAACAGGGGGCCCCAGCAGAAGCGUUCACGUCGCAGCCCCUGUCAGAUUCUGGUGAAUCUGCGAAUUCUGCCGUAUAUCUC [A13C U72C]

>  <self-cleavage>
0.83

$$$$
>  <querySequence>
UAACAGGGGGCCAUAGCAGAAGCGUUCAUGUCGCAGCCCCUGUCAGAUUCUGGUGAAUCUGCGAAUUCUGCUGUAUAUCUC [C14U C29U]

>  <self-cleavage>
0.72

$$$$
>  <querySequence>
UAACAGGGGGCCACAGCAGAAGCGUUCACGUGGCAGCCCCUGUCAGAUUCUGGUGAAUCUGCGAAUUCUGCUAUAUAUCUC [C32G G73A]

>  <self-cleavage>
0.22

$$$$
>  <querySequence>
UAACAGGGGGCCACAGCAGGAGCGUUCAGGUCGCAGCCCCUGUCAGAUUCUGGUGAAUCUGCGAAUUCUGCUGUAUAUCUC [A20G C29G]

>  <self-cleavage>
0.39

$$$$

Data origin: the RNAGym collection of RNA variant scans (doi:10.1093/nar/gkz1192)
